# EC50 values compiled below
Target: D(1A) dopamine receptor (Homo sapiens) (UniProt P21728)
Sequence (P21728 whole entry, looked up): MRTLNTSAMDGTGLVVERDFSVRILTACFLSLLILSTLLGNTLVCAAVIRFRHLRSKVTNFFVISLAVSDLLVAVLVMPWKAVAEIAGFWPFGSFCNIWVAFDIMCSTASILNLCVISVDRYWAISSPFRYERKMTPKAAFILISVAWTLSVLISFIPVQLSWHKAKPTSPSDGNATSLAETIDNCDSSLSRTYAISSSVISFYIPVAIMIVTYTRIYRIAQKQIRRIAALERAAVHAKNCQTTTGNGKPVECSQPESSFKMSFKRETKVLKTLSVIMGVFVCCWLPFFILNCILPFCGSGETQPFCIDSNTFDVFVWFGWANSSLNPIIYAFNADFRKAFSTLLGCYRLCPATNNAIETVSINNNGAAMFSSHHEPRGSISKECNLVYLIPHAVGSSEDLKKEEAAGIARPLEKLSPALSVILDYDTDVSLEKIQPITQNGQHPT
Experiment: D1 receptor modulation with EC30 dopamine, dose response, D1 allosteric modulator project, cell-based, CRE-luciferase, HEK293 (AID 858);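 note: HEK 293 cells bearing human D1 receptor stimulated by dopamine at its EC30; luciferase light from a cAMP response element reporter gene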

[
  {
    "Molecule": "CCOc1ccc(C2Oc3nc(SC)nnc3-c3ccccc3N2C(C)=O)cc1OC (configuration not stated)",
    "EC50": "2380 nM"
  },
  {
    "Molecule": "CCCC(=O)Nc1ccc(NC(=O)C2CC2)cn1",
    "EC50": "22.4 nM"
  },
  {
    "Molecule": "CNc1nc(C)c(C#N)c(-c2ccccc2)c1C(C)=O",
    "EC50": "2330 nM"
  },
  {
    "Molecule": "CC1(C)Cc2c(C#N)c(NC3CCCCC3)nc(-c3ccco3)c2CO1",
    "EC50": "2600 nM"
  },
  {
    "Molecule": "COC(=O)c1ccc(CSc2nc3c(cnn3-c3ccc(F)cc3)c(=O)[nH]2)o1",
    "EC50": "2490 nM"
  },
  {
    "Molecule": "CC(C)C1N=C2c3ccccc3N=C(SCC#N)N2C1=O (configuration not stated)",
    "EC50": "3140 nM"
  },
  {
    "Molecule": "CC(C)c1ccc(-c2nc(N3CCCCC3)[nH]c(=O)c2C#N)cc1",
    "EC50": "1750 nM"
  }
]
